Tested on: Blumeria graminis f. sp. tritici (also known as Erysiphe graminis f. sp. tritici, the causal agent of wheat powdery mildew)
method summary: Test D: wheat powdery mildew, preventive spray on wheat seedlings, visual disease rating
Format: in vivo
reported conditions: asterisk: 40 ppm test suspension; 100 = 100% disease control, 0 = no control
Marks after values point to notes of the source that are not given here.
Each entry below carries its recorded Test D rating (% disease control, wheat powdery mildew).

Consider the reported Test D rating (% disease control, wheat powdery mildew) for these molecules:
Cc1nc(Cl)c(C(O)c2ccc(F)cc2Br)n1-c1c(F)cccc1F (centres unmarked) [compound 383] | 92* %
COc1cc(F)c(-n2c(C)nc(Br)c2C(O)c2ccc(F)cc2C)c(F)c1 (centres unmarked) [compound 391] | 0* %
Cc1nc(Br)c(C(O)c2ccc(F)cc2F)n1-c1c(F)cccc1Cl (centres unmarked) [compound 400] | 100* %
Cc1nc(Br)c(C(O)c2ccc(F)cc2Br)n1-c1c(F)cccc1F (centres unmarked) [compound 384] | 72* %

Would you kindly look at the next entry?
[ask] Please report the recorded Test D rating (% disease control, wheat powdery mildew) for COc1cc(F)c(-n2c(C)nc(Cl)c2C(O)c2ccc(F)cc2F)c(F)c1 (centres unmarked) [compound 411] .
[reply] 50* %

Attribution: patent US20130143929A1
